assay-system: A/California/04/2009 (H1CA0409) recombinant HA (influenza A virus A/California/04/2009, UniProt P26140 18-529)
method-description: phage display panning (immunotube) against trimeric HA
experimental-readout: binding result

4F5 (scFv) scFv: QVQLVQSGAEVKKPGSSVKVSCKASGVTFRSYAISWVRQAPGQGLEWMGGISGIFGTANYAQKFQGRVTITADESTSTAYMELSSLRSEDTAVYYCARSPAYYFGPNMDVWGQGTLVTVSSGGGSGGGSGGGSGGGSQSVLTQPPSVSGAPGQRVTISCTGSSSNIGAGYDVHWYQQLPGTVPKLIIYDNSNRPSGVPARFSGSKSGTSASLAISGLQSEDEAAYYCQSYDSSLSVVVFGGGTKLSVL | binds
1E6 (scFv) scFv: QVQLVQSGAEVKKPGSSVKVSCKASGVTFSSYAISWVRQAPGQGLEWMGGISPIFGTANYAQKFQGRVTITADESTSTAYMELSSLRSEDTAVYYCARGREYYASNGDSFDVWGQGTLVTVSSGGGSGGGSGGGSGGGSQPVLTQPPSVSVAPGKTASISCEGNNIATKSVHWYQQKSGHAPVVVVYHDSDRPSGVPDRFSGSKSGTSASLAISGLRSEDEADYYCAAWDDSLSGPWVFGGGTKLTVL | binds
2A11 (scFv) scFv: QVQLVQSGAEVKKPGSSVKVSCKASGVTFSSYAISWVRQAPGQGLEWMGGISPVFGTANYAQKFQGRVTITADDSTNTAYMELSSLRSEDTAVYYCARSRGYTVSSLAGRYFDQWGQGTLVTVSSGGGSGGGSGGGSGGGSETTLTQSPGTLSLSPGERASLSCKASESLCSTCLAWYQQKPGQAPRLIVYGATSRATGIPDRFSGSGSGTDFTLTISRLEPEDFAVYYCQQYGSSPQTFGQGTKVEIK | binds
